These data points were gathered from patent EP4740948A1.

System: SW-13 cells
Assay: Cancer cell proliferation inhibition (Cell Counting Kit-8), adrenal cancer cell line
Type: cell-based
Details: Homo sapiens, SW13, 264 h, 1000 nM, cultured seven to 11 days; read-out: % inhibition rate SW-13
A collection of compounds and their measured inhibition at 1 µM
Recorded Endpoint: inhibition at 1 µM

1. CSc1cc(C)[nH]c(=O)c1CNC(=O)c1cc(-c2ccc(N3C[C@@H](C)O[C@@H](C)C3)nc2)c2c(c1C)OC(C)(C1CCN(C(=O)C(F)(F)F)CC1)O2 (single isomer, unassigned) :: 30 to 70%
2. CSc1cc(C)[nH]c(=O)c1CNC(=O)c1cc(-c2cnc(N3C[C@@H](C)O[C@@H](C)C3)nc2)c2c(c1C)OC(C)([C@H]1CC[C@H](N(C)C)CC1)O2 (stereo partly drawn) :: 30 to 70%
3. CSc1cc(C)[nH]c(=O)c1CNC(=O)c1cc(-c2cnc(N3CCC4(CC3)COC4)nc2)c2c(c1C)OC(C)([C@H]1CC[C@H](N(C)C)CC1)O2 (relative stereo) :: 30 to 70%

* * *

Biological target: EZH1 (Homo sapiens, UniProt Q92800)
Sequence (Q92800 whole entry, species assumed): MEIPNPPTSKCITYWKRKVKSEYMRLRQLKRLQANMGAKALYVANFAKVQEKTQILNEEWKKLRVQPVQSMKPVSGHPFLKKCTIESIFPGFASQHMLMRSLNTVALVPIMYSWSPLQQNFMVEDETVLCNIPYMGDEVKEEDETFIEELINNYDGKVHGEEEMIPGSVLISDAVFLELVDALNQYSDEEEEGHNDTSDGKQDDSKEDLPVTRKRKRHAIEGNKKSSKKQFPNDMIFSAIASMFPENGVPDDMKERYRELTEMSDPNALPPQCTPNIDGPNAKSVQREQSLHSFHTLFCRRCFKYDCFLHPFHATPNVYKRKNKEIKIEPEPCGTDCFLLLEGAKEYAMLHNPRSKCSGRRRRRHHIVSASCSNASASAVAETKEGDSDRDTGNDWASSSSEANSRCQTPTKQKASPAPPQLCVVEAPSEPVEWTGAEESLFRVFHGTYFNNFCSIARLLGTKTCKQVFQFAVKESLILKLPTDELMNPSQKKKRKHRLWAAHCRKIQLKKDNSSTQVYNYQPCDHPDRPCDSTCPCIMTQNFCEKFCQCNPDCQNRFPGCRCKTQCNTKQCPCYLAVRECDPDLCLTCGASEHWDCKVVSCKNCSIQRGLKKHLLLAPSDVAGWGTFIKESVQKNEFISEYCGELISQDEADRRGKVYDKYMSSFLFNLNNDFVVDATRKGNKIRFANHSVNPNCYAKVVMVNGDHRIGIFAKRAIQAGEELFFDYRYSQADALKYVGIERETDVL
Sequence (O75530 whole entry partner, species assumed): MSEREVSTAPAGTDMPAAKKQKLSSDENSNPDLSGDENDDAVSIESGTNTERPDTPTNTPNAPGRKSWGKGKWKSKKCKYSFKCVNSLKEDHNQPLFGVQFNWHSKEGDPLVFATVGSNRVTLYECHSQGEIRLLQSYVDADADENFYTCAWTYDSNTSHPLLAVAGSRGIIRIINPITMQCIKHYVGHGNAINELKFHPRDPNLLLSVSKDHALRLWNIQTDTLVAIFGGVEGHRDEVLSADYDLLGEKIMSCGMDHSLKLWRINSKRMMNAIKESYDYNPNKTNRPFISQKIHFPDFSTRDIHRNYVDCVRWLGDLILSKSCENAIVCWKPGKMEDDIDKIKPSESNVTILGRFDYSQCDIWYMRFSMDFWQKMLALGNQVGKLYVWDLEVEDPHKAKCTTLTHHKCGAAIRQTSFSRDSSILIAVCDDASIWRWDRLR
Sequence (Q15022 whole entry partner, species assumed): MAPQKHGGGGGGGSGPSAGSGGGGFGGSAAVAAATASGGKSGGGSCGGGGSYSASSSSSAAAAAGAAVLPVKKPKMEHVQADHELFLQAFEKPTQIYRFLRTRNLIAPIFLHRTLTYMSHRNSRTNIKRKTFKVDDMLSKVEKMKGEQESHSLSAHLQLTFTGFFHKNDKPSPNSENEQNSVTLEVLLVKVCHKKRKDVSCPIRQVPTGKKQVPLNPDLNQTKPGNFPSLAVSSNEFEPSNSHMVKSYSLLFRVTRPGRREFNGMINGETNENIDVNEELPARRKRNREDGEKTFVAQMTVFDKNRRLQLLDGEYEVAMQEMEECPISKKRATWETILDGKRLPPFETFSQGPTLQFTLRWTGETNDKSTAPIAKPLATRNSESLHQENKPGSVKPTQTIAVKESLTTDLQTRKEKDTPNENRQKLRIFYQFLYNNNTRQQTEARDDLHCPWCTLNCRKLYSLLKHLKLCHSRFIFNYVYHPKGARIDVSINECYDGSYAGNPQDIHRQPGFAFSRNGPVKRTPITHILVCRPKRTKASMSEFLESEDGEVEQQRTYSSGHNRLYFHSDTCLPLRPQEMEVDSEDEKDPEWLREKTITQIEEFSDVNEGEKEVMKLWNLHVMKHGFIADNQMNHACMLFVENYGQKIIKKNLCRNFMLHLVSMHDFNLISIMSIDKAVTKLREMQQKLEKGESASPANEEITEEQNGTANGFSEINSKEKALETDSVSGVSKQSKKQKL
Test: AlphaLISA enzyme activity inhibition, EZH1
Type: biochemical
Details: 5nM test substance
A collection of molecules and their measured inhibition at 0.005 µM
Recorded Endpoint: inhibition at 0.005 µM (%)

1) COCCN(C)[C@H]1CC[C@H](C2(C)Oc3c(-c4ccc(N5CCC(F)(F)CC5)nc4)cc(C(=O)NCc4c(SC)cc(C)[nH]c4=O)c(C)c3O2)CC1 (relative stereo) [Compound 27] :: 80.2
2) CSc1cc(C)[nH]c(=O)c1CNC(=O)c1cc(-c2ccoc2)c2c(c1C)OC(C)([C@H]1CC[C@H](N(C)C)CC1)O2 (relative stereo) [Compound 18] :: 87.6
3) CSc1cc(C)[nH]c(=O)c1CNC(=O)c1cc(-c2cnc(N3C[C@@H](C)O[C@@H](C)C3)nc2)c2c(c1C)OC(C)(C1CCN(CC(F)(F)F)CC1)O2 (some centres unmarked) [Compound 38] :: 40.6
4) COC1CN([C@H]2CC[C@H](C3(C)Oc4c(-c5ccc(N6C[C@@H](C)O[C@@H](C)C6)nc5)cc(C(=O)NCc5c(SC)cc(C)[nH]c5=O)c(C)c4O3)CC2)C1 (some centres unmarked) [Compound 106] :: 34.2
5) CSc1cc(C)[nH]c(=O)c1CNC(=O)c1cc(-c2ccc(N3CCOCC3)nc2)c2c(c1C)OC(C)(C1CCN(CC(F)(F)F)CC1)O2 (single isomer, unassigned) [Compound 62] :: 66.9

* * *

Target: EZH2 (Homo sapiens, UniProt Q15910)
Sequence (Q15910 whole entry, species assumed): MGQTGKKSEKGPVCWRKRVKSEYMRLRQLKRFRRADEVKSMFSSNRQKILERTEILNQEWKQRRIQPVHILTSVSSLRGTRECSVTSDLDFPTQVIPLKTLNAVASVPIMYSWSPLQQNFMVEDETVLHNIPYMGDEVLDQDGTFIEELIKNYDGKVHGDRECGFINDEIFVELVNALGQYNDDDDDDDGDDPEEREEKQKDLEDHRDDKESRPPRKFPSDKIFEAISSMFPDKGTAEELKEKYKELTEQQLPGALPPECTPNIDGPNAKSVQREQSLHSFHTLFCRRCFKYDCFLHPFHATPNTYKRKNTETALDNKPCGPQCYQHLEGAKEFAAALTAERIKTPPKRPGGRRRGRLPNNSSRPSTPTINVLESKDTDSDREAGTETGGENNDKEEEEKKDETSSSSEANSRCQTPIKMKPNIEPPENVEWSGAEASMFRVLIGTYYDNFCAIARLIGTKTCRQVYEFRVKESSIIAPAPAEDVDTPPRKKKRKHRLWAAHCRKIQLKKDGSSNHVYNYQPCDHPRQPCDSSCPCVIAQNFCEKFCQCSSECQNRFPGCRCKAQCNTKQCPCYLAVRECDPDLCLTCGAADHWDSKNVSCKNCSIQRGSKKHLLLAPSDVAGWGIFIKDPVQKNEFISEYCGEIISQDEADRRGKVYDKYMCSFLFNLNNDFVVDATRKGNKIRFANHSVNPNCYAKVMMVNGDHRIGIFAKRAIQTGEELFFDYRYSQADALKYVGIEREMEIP
Sequence (O75530 whole entry partner, species assumed): as the sequence (O75530 whole entry partner, species assumed) above
Sequence (Q15022 whole entry partner, species assumed): as the sequence (Q15022 whole entry partner, species assumed) above
Test: AlphaLISA enzyme activity inhibition, EZH2
Assay type: biochemical
Conditions: 10nM test substance
Recorded Endpoint: inhibition at 0.01 µM (%)

1. CSc1cc(C)[nH]c(=O)c1CNC(=O)c1cc(-c2ccc(N3C[C@@H](C)O[C@@H](C)C3)nc2)c2c(c1C)OC(C)([C@H]1CC[C@H](N3CC(OCC(F)F)C3)CC1)O2 (some centres unmarked) :: 72.5
2. CSc1cc(C)[nH]c(=O)c1CNC(=O)c1cc(-c2ccc3occc3c2)c2c(c1C)OC(C)(C1CCN(CC(F)F)CC1)O2 (centres unmarked) :: 82.3
3. CSc1cc(C)[nH]c(=O)c1CNC(=O)c1cc(-c2cnc(N3CCOCC3)nc2)c2c(c1C)OC(C)(C1CCN(CC(F)(F)F)CC1)O2 (centres unmarked) [Compound 68] :: 99.7
4. CCCCN(C)c1ncc(-c2cc(C(=O)NCc3c(SC)cc(C)[nH]c3=O)c(C)c3c2OC(C)(C2CCN(CC(F)(F)F)CC2)O3)cn1 (centres unmarked) :: 76.5
5. CSc1cc(C)[nH]c(=O)c1CNC(=O)c1cc(-c2ccc(N3C[C@@H](C)O[C@@H](C)C3)nc2)c2c(c1C)OC(C)(C1CCN(C(=O)C(F)(F)F)CC1)O2 (single isomer, unassigned) :: 99.5

* * *

A collection of compounds and their measured inhibition at 0.005 µM
Target: EZH2 (Homo sapiens)
Experiment: AlphaLISA enzyme activity inhibition, EZH2
Assay type: biochemical
Details: 5nM test substance
Recorded Endpoint: inhibition at 0.005 µM (%)

1. COC(CN1CCC(C2(C)Oc3c(-c4ccc(N5C[C@@H](C)O[C@@H](C)C5)nc4)cc(C(=O)NCc4c(SC)cc(C)[nH]c4=O)c(C)c3O2)CC1)OC (stereo partly drawn) :: 96.8
2. CSc1cc(C)[nH]c(=O)c1CNC(=O)c1cc(-c2ccc(N3C[C@@H](C)O[C@@H](C)C3)nc2)c2c(c1C)OC(C)([C@H]1CC[C@H](N(C)C[C@H](C)O)CC1)O2 (stereo partly drawn) :: 98.3
3. CSc1cc(C)[nH]c(=O)c1CNC(=O)c1cc(-c2cnc(N(C)C)nc2)c2c(c1C)OC(C)(C1CCN(CC(F)(F)F)CC1)O2 (stereo not drawn) :: 94
4. CSc1cc(C)[nH]c(=O)c1CNC(=O)c1cc(-c2cnc(N3CCOCC3)nc2)c2c(c1C)OC(C)(C1CCN(CC(F)(F)F)CC1)O2 (single isomer, unassigned) [Compound 69] :: 98.2
5. CSc1cc(C)[nH]c(=O)c1CNC(=O)c1cc(-c2ccc(N3CCC(F)(F)CC3)nc2)c2c(c1C)OC(C)([C@H]1CC[C@H](N(C)C)CC1)O2 (relative stereo) :: 66.5
6. CCN1CCC(C2(C)Oc3c(-c4cnc(N(C)CC)nc4)cc(C(=O)NCc4c(SC)cc(C)[nH]c4=O)c(C)c3O2)CC1 (single isomer, unassigned) :: 99.2
7. CSc1cc(C)[nH]c(=O)c1CNC(=O)c1cc(-c2ccc(N3C[C@@H](C)O[C@@H](C)C3)nc2)c2c(c1C)OC(C)([C@H]1CC[C@H](N(C)C(=O)C(F)(F)F)CC1)O2 (stereo partly drawn) :: 37.3
8. CSc1cc(C)[nH]c(=O)c1CNC(=O)c1cc(-c2cnc(N3CCCCC3)nc2)c2c(c1C)OC(C)([C@H]1CC[C@H](N(C)C)CC1)O2 (relative stereo) :: 77.4
9. CSc1cc(C)[nH]c(=O)c1CNC(=O)c1cc(-c2ccc(N3C[C@@H](C)O[C@@H](C)C3)nc2)c2c(c1C)OC(C)(C1CCN(C[C@H](C)O)CC1)O2 (stereo partly drawn) :: 94.6
10. COC(CN(C)[C@H]1CC[C@H](C2(C)Oc3c(-c4ccc(N5C[C@@H](C)O[C@@H](C)C5)nc4)cc(C(=O)NCc4c(SC)cc(C)[nH]c4=O)c(C)c3O2)CC1)OC (stereo partly drawn) :: 75.6
11. CSc1cc(C)[nH]c(=O)c1CNC(=O)c1cc(-c2ccc(N3C[C@@H](C)O[C@@H](C)C3)nc2)c2c(c1C)OC(C)(C1CCN(CC(F)(F)F)CC1)O2 (stereo partly drawn) [Compound 33] :: 59.1
12. CSc1cc(C)[nH]c(=O)c1CNC(=O)c1cc(-c2ccc(N3C[C@@H](C)O[C@@H](C)C3)nc2)c2c(c1C)OC(C)(C1CCN(CC(F)(F)F)CC1)O2 (single isomer, unassigned) [Compound 44] :: 96.1
13. CCN(C)c1ncc(-c2cc(C(=O)NCc3c(SC)cc(C)[nH]c3=O)c(C)c3c2OC(C)(C2CCN(CC(F)F)CC2)O3)cn1 (single isomer, unassigned) :: 99.2
14. CSc1cc(C)[nH]c(=O)c1CNC(=O)c1cc(-c2ccc3c(c2)OCO3)c2c(c1C)OC(C)(C1CCN(CC(F)F)CC1)O2 (stereo not drawn) :: 83.2
15. CSc1cc(C)[nH]c(=O)c1CNC(=O)c1cc(-c2ccc(N3CCOCC3)cc2)c2c(c1C)OC(C)([C@H]1CC[C@H](N(C)C)CC1)O2 (relative stereo) :: 98.6
16. CSc1cc(C)[nH]c(=O)c1CNC(=O)c1cc(-c2ccc(N3C[C@@H](C)O[C@@H](C)C3)nc2)c2c(c1C)OC(C)([C@H]1CC[C@H](N3CC(OCC(F)F)C3)CC1)O2 (stereo partly drawn) :: 27.1
17. CSc1cc(C)[nH]c(=O)c1CNC(=O)c1cc(-c2ccc(N3C[C@@H](C)O[C@@H](C)C3)nc2)c2c(c1C)OC(C)([C@H]1CC[C@H](N(C)CC(F)(F)F)CC1)O2 (stereo partly drawn) :: 26.1
18. CSc1cc(C)[nH]c(=O)c1CNC(=O)c1cc(-c2ccc3occc3c2)c2c(c1C)OC(C)(C1CCN(CC(F)F)CC1)O2 (stereo not drawn) :: 74.7
19. CSc1cc(C)[nH]c(=O)c1CNC(=O)c1cc(-c2cnc(N3CCC4(CC3)COC4)nc2)c2c(c1C)OC(C)([C@H]1CC[C@H](N(C)C)CC1)O2 (relative stereo) :: 99.8
20. CSc1cc(C)[nH]c(=O)c1CNC(=O)c1cc(-c2cnc(N3C[C@@H](C)O[C@@H](C)C3)nc2)c2c(c1C)OC(C)([C@H]1CC[C@H](N(C)C)CC1)O2 (stereo partly drawn) :: 92.9
21. CSc1cc(C)[nH]c(=O)c1CNC(=O)c1cc(-c2ccc(N3C[C@@H](C)O[C@@H](C)C3)nc2)c2c(c1C)OC(C)([C@H]1CC[C@H](N(C)C(C)C)CC1)O2 (stereo partly drawn) :: 99.8
